Experiment: in vitro
Conditions: mouse, plasma
Non-standard residues stand in square brackets, D forms with d. Residues, ends and D or L forms follow the SMILES beside them. NMeY = CN[C@@H](Cc1ccc(O)cc1)C(=O)O; Nle = CCCC[C@H](N)C(=O)O; Aib = CC(C)(N)C(=O)O
# strict inequality: remaining at 1 h, 1 µM < 0.09% yields yes (1), everything else yields no (0)

Solved cases (4 shown):
1. CCCC[C@H](NC(=O)[C@@H](NC(=O)[C@H](Cc1ccc(O)cc1)NC)C(C)C)C(=O)N[C@H](C)C(=O)N[C@@H](Cc1c[nH]cn1)C(=O)N[C@@H](Cc1ccccc1)C(=O)N[C@@H](CCCNC(=N)N)C(=O)N[C@H](Cc1c[nH]c2ccccc12)C(=O)N[C@@H](CC(=O)O)C(N)=O [CTX-1141] (H-[NMeY]V[Nle][dA]HFR[dW]D-NH2)
no (0)
2. CCCC[C@H](NC(=O)[C@@H](NC(=O)[C@@H](N)Cc1ccc(O)cc1)C(C)C)C(=O)NC(C)(C)C(=O)N[C@@H](Cc1c[nH]cn1)C(=O)N[C@@H](Cc1ccccc1)C(=O)N[C@@H](CCCNC(=N)N)C(=O)N[C@H](Cc1c[nH]c2ccccc12)C(=O)N[C@@H](CC(=O)O)C(=O)N[C@@H](CCCNC(=N)N)C(=O)N[C@@H](Cc1ccccc1)C(=O)NCC(=O)O [CTX-1134] (H-YV[Nle][Aib]HFR[dW]DRFG-OH)
yes (1)
3. CC(C)[C@H](NC(=O)[C@@H](N)Cc1ccc(O)cc1)C(=O)N[C@@H](CCC(=O)O)C(=O)NCC(=O)N[C@@H](Cc1c[nH]cn1)C(=O)N[C@@H](Cc1ccccc1)C(=O)N[C@@H](CCCNC(=N)N)C(=O)N[C@H](Cc1c[nH]c2ccccc12)C(=O)N[C@@H](CC(=O)O)C(=O)N[C@@H](CCCNC(=N)N)C(=O)N[C@@H](Cc1ccccc1)C(=O)NCC(N)=O [CTX-1105] (H-YVEGHFR[dW]DRFG-NH2)
no (0)
4. CCCC[C@H](NC(=O)[C@@H](NC(=O)[C@@H](N)Cc1ccc(O)cc1)C(C)C)C(=O)N[C@H](C)C(=O)N[C@@H](Cc1c[nH]cn1)C(=O)N[C@@H](Cc1ccccc1)C(=O)N[C@@H](CCCNC(=N)N)C(=O)N[C@H](Cc1c[nH]c2ccccc12)C(=O)N[C@@H](CC(=O)O)C(=O)N[C@@H](CCCNC(=N)N)C(=O)N[C@H](Cc1ccccc1)C(=O)NCC(=O)O [CTX-1127] (H-YV[Nle][dA]HFR[dW]DR[dF]G-OH)
yes (1)

remaining at 1 h, 1 µM under 0.09%? Item: CCCC[C@H](NC(=O)[C@@H](NC(=O)[C@@H](N)Cc1ccc(O)cc1)C(C)C)C(=O)N[C@H](C)C(=O)N[C@@H](Cc1c[nH]cn1)C(=O)N[C@@H](Cc1ccccc1)C(=O)N[C@@H](CCCNC(=N)N)C(=O)N[C@H](Cc1c[nH]c2ccccc12)C(=O)N[C@@H](CC(=O)O)C(N)=O [CTX-1108, Tyr-Val-Nle-D-Ala-His-Phe-Arg-D-Trp-Asp] (H-YV[Nle][dA]HFR[dW]D-NH2) yes (1)

Reference source: patent US20240287154A1
